The reader will find reported IC50 values listed item by item below.
- TEST SYSTEM: recombinant HTLV-1 IN (Human T-cell leukemia virus 1)
- Construct: made in house
- Sequence (P03362 1168-1462): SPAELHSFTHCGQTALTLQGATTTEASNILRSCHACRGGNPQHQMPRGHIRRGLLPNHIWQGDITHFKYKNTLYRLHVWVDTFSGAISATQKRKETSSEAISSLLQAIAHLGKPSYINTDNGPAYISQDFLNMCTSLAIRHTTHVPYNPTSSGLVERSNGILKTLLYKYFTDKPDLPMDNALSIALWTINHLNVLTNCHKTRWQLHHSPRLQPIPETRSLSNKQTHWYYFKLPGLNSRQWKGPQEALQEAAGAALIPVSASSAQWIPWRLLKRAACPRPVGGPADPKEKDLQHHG
- ASSAY DETAILS: In vitro integration strand transfer assay with HTLV-1 IN
- Format: biochemical
- CONDITION PARAMETERS: Replicate 1; read-out: HTLV-1 IN strand transfer IC50
Output spec: scalar in nM, unitless text.

CC(C)NC(=O)/C=C/c1cnc2c(c1)c(N)c(C(=O)NCc1ccc(F)cc1F)c(=O)n2O [XZ452] | 174
CN(C)C(=O)CCc1cnc2c(c1)c(N)c(C(=O)NCc1ccc(F)cc1F)c(=O)n2O [XZ450] | 115

With those in mind, consider the next compound.
Req: Value lookup for IC50; key = Nc1c(C(=O)NCc2ccc(F)cc2F)c(=O)n(O)c2ncc(CCCCCO)cc12 [XZ419]
Resp: 173
